TESTED ON: HBV polymerase (Hepatitis B virus genotype D subtype ayw)
Construct: made in house; host or cells: E. coli
Sequence (P03156 whole entry): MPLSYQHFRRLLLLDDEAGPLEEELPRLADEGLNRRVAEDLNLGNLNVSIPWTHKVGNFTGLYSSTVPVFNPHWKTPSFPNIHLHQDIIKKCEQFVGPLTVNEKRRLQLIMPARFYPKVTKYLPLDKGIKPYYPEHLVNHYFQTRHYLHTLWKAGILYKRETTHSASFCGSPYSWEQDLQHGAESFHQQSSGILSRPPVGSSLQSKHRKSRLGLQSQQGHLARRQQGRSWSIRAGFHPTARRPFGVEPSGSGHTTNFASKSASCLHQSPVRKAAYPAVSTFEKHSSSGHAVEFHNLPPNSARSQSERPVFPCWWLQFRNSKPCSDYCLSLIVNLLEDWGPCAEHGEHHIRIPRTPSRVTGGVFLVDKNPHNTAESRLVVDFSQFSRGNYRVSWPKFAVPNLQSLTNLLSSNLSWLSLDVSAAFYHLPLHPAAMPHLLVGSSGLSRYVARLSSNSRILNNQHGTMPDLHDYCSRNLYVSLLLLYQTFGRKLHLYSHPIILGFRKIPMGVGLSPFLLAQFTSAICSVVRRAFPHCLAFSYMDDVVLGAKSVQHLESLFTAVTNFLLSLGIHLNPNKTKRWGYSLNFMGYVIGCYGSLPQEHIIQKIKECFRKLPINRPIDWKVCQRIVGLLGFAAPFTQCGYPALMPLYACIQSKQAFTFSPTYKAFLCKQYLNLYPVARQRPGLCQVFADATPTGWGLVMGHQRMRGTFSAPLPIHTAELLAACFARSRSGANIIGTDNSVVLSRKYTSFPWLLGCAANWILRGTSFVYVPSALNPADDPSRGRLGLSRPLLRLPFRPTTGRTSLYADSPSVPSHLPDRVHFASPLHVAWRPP
ASSAY METHOD TEXT: Inhibitory activities against HBV polymerase (reverse transcriptase activity) in vitro
Format: biochemical
STATED CONDITIONS: 0.1 μg/ml; read-out: Inhibitory activity of HBV-RT (%)
# reported inhibition at 0.1 µg/mL; entries follow
READOUT LABEL: inhibition at 0.1 µg/mL (%)

1. CC(C)Nc1cccnc1N1CCN(C(=O)c2ccc(C(=O)NC3CCCC3)cn2)CC1 | 65
2. Cc1csc(NC(=O)c2ccc(C(=O)N3CCN(c4ncccc4NC(C)C)CC3)nc2)n1 | 69
3. CC(C)Nc1cccnc1N1CCN(C(=O)c2ccc(C(=O)NCCCN3CCCC3=O)cn2)CC1 | 72
4. CC(C)Nc1cccnc1N1CCN(C(=O)c2ccc(C(=O)N[C@@H](C)CO)cn2)CC1 | 39
5. CC(C)NC(=O)c1ccc(C(=O)N2CCN(c3ncccc3N)CC2)nc1 | 62
6. CC(C)Nc1cccnc1N1CCN(C(=O)c2ccc(C(=O)NC(CO)CO)cn2)CC1 | 56
7. CC(C)Nc1cccnc1N1CCN(C(=O)c2ccc(C(=O)NCCc3cccs3)cn2)CC1 | 60
